Tested on: Staphylococcus epidermidis EPI1
method: MIC, standard agar-dilution assay (Table II)
Format: cell-based
Set-up: unit not given here
propertyMeasured: minimal inhibitory concentration (MIC)
Give the figure only, with no unit attached.

Worked examples, 10 compounds total:
compound	minimal inhibitory concentration (MIC)
CCC1OC(=O)CC(O)C(C)C(OC2OC(C)C(O)C(N(C)C)C2O)C(CC=O)CC(C)C(=O)C=CC(C)=CC1COC(=O)c1ccc2ccccc2c1 (stereo not drawn)	0.5
CCC1OC(=O)CC(O)C(C)C(OC2OC(C)C(OC(C)=O)C(N(C)C)C2OC(C)=O)C(CC=O)CC(C)C(=O)C=CC(C)=CC1COC(=O)[C@H](NC(=O)OC(C)(C)C)c1ccccc1 (stereo partly drawn)	0.5
CCC1OC(=O)CC(O)C(C)C(OC2OC(C)C(O)C(N(C)C)C2O)C(CC=O)CC(C)C(=O)C=CC(C)=CC1COC(=O)OC (stereo not drawn)	0.25
CCC1OC(=O)CC(O)C(C)C(OC2OC(C)C(O)C(N(C)C)C2O)C(CC=O)CC(C)C(=O)C=CC(C)=CC1COS(=O)(=O)c1ccc(NC(C)=O)cc1 (stereo not drawn)	0.5
CCC1OC(=O)CC(O)C(C)C(OC2OC(C)C(O)C(N(C)C)C2OC(C)=O)C(CC=O)CC(C)C(=O)C=CC(C)=CC1COC(=O)Cc1ccc(Cl)cc1 (stereo not drawn)	0.125
CCC1OC(=O)CC(O)C(C)C(OC2OC(C)C(O)C(N(C)C)C2O)C(CC=O)CC(C)C(=O)C=CC(C)=CC1COC(=O)c1ccccc1 (stereo not drawn)	0.25
CCC1OC(=O)CC(O)C(C)C(OC2OC(C)C(OC(C)=O)C(N(C)C)C2OC(C)=O)C(CC=O)CC(C)C(=O)C=CC(C)=CC1COC(=O)CSc1ccc(Cl)c(Cl)c1 (stereo not drawn)	2
CCC1OC(=O)CC(O)C(C)C(OC2OC(C)C(O)C(N(C)C)C2O)C(CC=O)CC(C)C(=O)C=CC(C)=CC1COC(=O)COc1ccccc1 (stereo not drawn)	0.125
CCC1OC(=O)CC(O)C(C)C(OC2OC(C)C(O)C(N(C)C)C2O)C(CC=O)CC(C)C(=O)C=CC(C)=CC1COC(=O)C(C)(C)C (stereo not drawn)	0.25
CCC1OC(=O)CC(O)C(C)C(OC2OC(C)C(OC(C)=O)C(N(C)C)C2OC(C)=O)C(CC=O)CC(C)C(=O)C=CC(C)=CC1COS(=O)(=O)c1ccc(C)cc1 (stereo not drawn)	0.25

Look at this compound and give its reported minimal inhibitory concentration (MIC). CCC(=O)OC1C(OC2C(CC=O)CC(C)C(=O)C=CC(C)=CC(CO)C(CC)OC(=O)CC(O)C2C)OC(C)C(O)C1N(C)C (stereo not drawn)
1

For CCC1OC(=O)CC(O)C(C)C(OC2OC(C)C(OC(C)=O)C(N(C)C)C2OC(C)=O)C(CC=O)CC(C)C(=O)C=CC(C)=CC1COC(=O)C(C)C (stereo not drawn) , what is its reported minimal inhibitory concentration (MIC)?
0.5

Bench note: what minimal inhibitory concentration (MIC) did CCC1OC(=O)CC(O)C(C)C(OC2OC(C)C(OC(=O)c3ccccc3)C(N(C)C)C2OC(=O)c2ccccc2)C(CC=O)CC(C)C(=O)C=CC(C)=CC1CO (stereo not drawn) show?
8

# get_value(readout='minimal inhibitory concentration (MIC)', item= CCC(=O)OCC1C=C(C)C=CC(=O)C(C)CC(CC=O)C(OC2OC(C)C(O)C(N(C)C)C2OC(C)=O)C(C)C(O)CC(=O)OC1CC (stereo not drawn) )
0.25

GET /values?readout=minimal inhibitory concentration (MIC)&item= CCC1OC(=O)CC(O)C(C)C(OC2OC(C)C(O)C(N(C)C)C2O)C(CC=O)CC(C)C(=O)C=CC(C)=CC1COC(=O)[C@H](NC(=O)OC(C)(C)C)c1ccccc1 (stereo partly drawn)
0.5

// lookup minimal inhibitory concentration (MIC) for CCC1OC(=O)CC(O)C(C)C(OC2OC(C)C(O)C(N(C)C)C2OC(C)=O)C(CC=O)CC(C)C(=O)C=CC(C)=CC1COC(=O)C=Cc1ccccc1 (stereo not drawn)
0.5

Consider the compound CCC1OC(=O)CC(O)C(C)C(OC2OC(C)C(O)C(N(C)C)C2O)C(CC=O)CC(C)C(=O)C=CC(C)=CC1COC(=O)CCCCc1ccccc1 (stereo not drawn) and give its measured minimal inhibitory concentration (MIC).
0.25
